Tested on: MOLT-4
Assay: NCI tumour cell line growth inhibition, 48 h
Active and inactive are the calls of the source. Rule as the data show it: active = GI50 up to about 1.1 µM and inactive = higher.
Answer with one of the outcomes active, inactive

*Q* What call does the record list for CC1=C(N(C)C)C(=O)c2nc3n(c2C1=O)CCC3OC(N)=O (stereo not given) ?
*A* inactive

*Q* So what was the verdict on O=C1C2=Cc3ccccc3CCN2c2ccc([N+](=O)[O-])cc21 in this test?
*A* inactive

*Q* Check the results log: what was the call for CCSCCCCC(c1ccc(O)cc1)C(C)(CC)c1ccc(O)cc1 (stereo not given) ?
*A* inactive

*Q* What did the test return for O=[N+]([O-])c1cccc2nc3ccccc3c(NCCc3cccc[n+]3[O-])c12 ?
*A* active

*Q* Can you look up the reported call for C=C(CN(C)C)C(=O)c1ccc(C)cc1C for me?
*A* active

*Q* Which outcome did this test record for the compound O=C(C/C(=N/O)C(=O)NC1=C(Cl)C(=O)c2ccccc2C1=O)CC(c1ccccc1)c1c(O)c2ccccc2oc1=O (stereo not given) ?
*A* inactive

*Q* Tell me the assay call for COc1ccc(/C(Cl)=C(\C=O)c2ccc(Br)cc2)cc1OC please.
*A* inactive

*Q* GET /call?item= CCOC(=O)NC(=O)c1cn(CCN2CCNCC2)c(=O)[nH]c1=O returns the recorded outcome of this test.
*A* inactive

*Q* Tell me the assay call for CCOC(=O)C1C(=O)C(=O)N2CCc3c([nH]c4ccccc34)C12 (stereo not given) please.
*A* inactive

*Q* # outcome recorded in this test, key = CCCN1CN(C(C(=O)N[C@@H]2C(=O)N3C2SC(C)(C)C3C(=O)O)c2ccccc2)CSC1=S (stereo not given in full)
*A* inactive

----------
Could you please report measured GI50 for the items listed next?
Test system: K562
Test: NCI tumour cell line growth inhibition, 48 h
Calls of active or inactive are those of the source. Cut-off read from the data, not from the text of the source: active = GI50 up to about 1.1 µM and inactive = higher.

Cn1c2c(c3ccccc31)CCN1C(=O)C3SC21C1C(=O)N(c2ccccc2)C(=O)C31 (stereo unspecified) yielded GI50 of 40.4 µM (inactive)

What the record says about CN1C(=O)c2cccc3c([N+](=O)[O-])ccc(c23)C1=O : GI50 is 4.1 µM (inactive)

Entry CC(O)C1(CNc2cc(Cl)nc(N)n2)CCC1 (stereo unspecified) — recorded GI50 = > 100 µM (inactive)

Value of GI50 reported for the molecule O=C(C1OC1c1cccc([N+](=O)[O-])c1)C12CC3CC(CC(C3)C1)C2 (stereo unspecified) is 2.58 µM (inactive)

Given item Cc1nc(-c2ccc(Cl)cc2)cn2c1nc1ccccc12 , the value recorded as its GI50 is > 72.3 µM (inactive)

Notebook: CCOC(=O)C1C(=O)C(=O)N2CCc3c([nH]c4ccccc34)C12 (stereo unspecified) , GI50 read as > 100 µM (inactive)

In plain terms, CNS(=O)(=O)NN(C)S(=O)(=O)c1ccc(Br)cc1 has a documented GI50 of > 100 µM (inactive)

Please fill in: GI50 reported for CC1=C(N(C)C)C(=O)c2nc3n(c2C1=O)CCC3OC(N)=O (stereo unspecified) = 18.5 µM (inactive)

Per the record, O=C(O)/C=C/n1c2ccccc2c(=O)c2ccccc21 has GI50 of > 100 µM (inactive)

Summary for this molecule, CC(C)(C)C#COC(=O)c1ccccc1 : GI50 is > 100 µM (inactive)

Input CN1CCN(C)C12C=CC=CC21CC1 . Output GI50: > 100 µM (inactive)

----------
System: OVCAR-4
Assay: NCI tumour cell line growth inhibition, 48 h
Calls of active or inactive are those of the source. Rule as the data show it: active = GI50 up to about 1.1 µM and inactive = higher.
Valid outcomes are listed here; reply with one: active, inactive

*Q* For this compound, state the assay outcome: COc1nc2nccc-2c2occn12
*A* inactive

*Q* What classification did C#CCSc1nc(N)c2ncn(C3OC(COP(=O)(O)O)C(O)C3O)c2n1 (centres undefined) end up with in this test?
*A* inactive

*Q* Record request — test call for c1ccc2nc(-c3ccc4c(c3)OCO4)ccc2c1
*A* inactive

*Q* What classification did CCOC(=O)C1=C(O)C(=O)c2cc(OC)ccc2C1=O end up with in this test?
*A* inactive

*Q* Returns: the outcome recorded for CC(=O)O[C@H]1C[C@H]2[C@@H]([C@H](OC(C)=O)C[C@@H]3CC4(CC[C@@]32C)OOC2(CCCCC2)OO4)[C@@H]2CC[C@H]([C@H](C)CCC(N)=O)[C@@]12C in this assay.
*A* inactive

*Q* Could you please tell me the result logged for CCOC(=O)c1cccc([N+](=O)[O-])c1N in this assay?
*A* inactive

*Q* Which outcome was entered for the compound CSc1ncnc2c1ncn2C1OC(CO)C(O)OC1O (centres undefined) in this test?
*A* inactive

*Q* Write down the call the test reported for this compound. Item: COc1cc2c(cc1OC)C(=O)C(C1=C(SC(=N)N)C(=O)c3cc(OC)c(OC)cc31)C2 (centres undefined)
*A* inactive

*Q* Tell me the assay call for C=CCN(c1cc(OC)c2[nH]c(C(=O)OCC)c(C)c2c1[N+](=O)[O-])S(C)(=O)=O please.
*A* inactive

*Q* In this assay, the call recorded for COc1ccc(NCc2cccc3c(=O)c4ccc(Cl)cc4oc23)cc1 was what?
*A* inactive

*Q* Fill in: this test's call for C[C@]12CC[C@H](O)CC1=CC[C@@H]1C2CC[C@]2(C)C(=O)N(N)C(=O)CC12 (some centres undefined) is ___
*A* inactive

*Q* # lookup: test call for CCOP(=O)(/C=C/n1ccc(N)nc1=O)OCC
*A* inactive

*Q* Record request — test call for O=C(CSCC(=O)N/N=C\c1ccc(F)cc1F)N/N=C\c1ccc(F)cc1F
*A* inactive

*Q* GET /call?item= COc1ccc2c(c1)C1=NCCN(CCN(C)C)c3ccc([N+](=O)[O-])c(c31)N2 returns the recorded outcome of this test.
*A* active

*Q* # outcome recorded in this test, key = CC12OC(=O)C(C#N)C1(C)C1C(=O)CCCC12 (centres undefined)
*A* inactive

*Q* Call for entry CC(C)C(CCOS(=O)(=O)O)CCC(C)[C@H]1[C@@H](O)C(O)C2[C@]3(O)C[C@@H](O)C4(O)C[C@@H](O)CC[C@]4(C)C3CC[C@@]21C (some centres undefined) :
*A* inactive

*Q* I'd appreciate the recorded outcome for C[C@H]1[C@H](C)CC[C@]2(C(=O)O)CCC3(COC(=O)/C=C/c4ccc(O)cc4)C(=CCC4[C@@]5(C)CC[C@H](O)C(C)(C)C5CC[C@]43C)[C@H]12 (some centres undefined) from this test.
*A* inactive

*Q* How did this test come out for COc1ccc2[nH]cc(CN3CCC(CO)(c4ccccc4)CC3)c2c1 ?
*A* inactive

*Q* State the result this test recorded for C=CCN1C(=O)CS/C1=N\NC(=O)CSc1nc2ccccc2c(=O)n1CC .
*A* inactive

----------
Test system: U-251
Assay: NCI tumour cell line growth inhibition, 48 h
The source made the active and inactive calls. Cut-off read from the data, not from the text of the source: active = GI50 up to about 1.1 µM and inactive = higher.
Exercise: state measured GI50 for each of the compounds provided.

Let me check: Cn1c2ccccc2c(=NNc2ccc(C(=O)O)cc2)c2ccccc21 , system U-251, measured GI50 is 11.1 µM (inactive)

GI50 for U-251 with input CCOC(=O)c1c(-c2ccc(O)c(OC)c2)c(C#N)c(=S)n(C2OC(COC(C)=O)C(OC(C)=O)C(OC(C)=O)C2OC(C)=O)c1-c1ccccc1 (stereo not drawn) equals > 100 µM (inactive)

Observed GI50 on U-251, entry Cc1ccc(NC(=O)CCc2nnc(N)o2)cc1 , equals > 100 µM (inactive)

Entry O=C(O)CP(=O)(O)O ; assay system U-251; GI50 recorded at > 100 µM (inactive)

GI50 of CC(O)C1(CNc2cc(Cl)nc(N)n2)CCC1 (stereo not drawn) , assay on U-251, is > 100 µM (inactive)

Reported GI50 (U-251) for entry c1ccc2nc(-c3ccc4c(c3)OCO4)ccc2c1 is 53.6 µM (inactive)

The reported U-251 GI50 of COC(=O)Nc1nc2cc(NC(=O)c3ccc(I)cc3)ccc2[nH]1 is > 100 µM (inactive)

Kindly note: U-251, O=C(Nc1ccc(F)cc1)c1cc2ccc(O)cc2o/c1=N\c1cccc(F)c1 , GI50 value reported: 28.7 µM (inactive)

Item: O=C1C(CO)=C[C@@H](O)[C@H]2O[C@@H]12 | System: U-251 | GI50: 61.5 µM (inactive)

Measured GI50 for this entry COC(=O)[C@H](COC(=O)/C=C/c1ccc(OC(C)=O)c(OC(C)=O)c1)NC(=O)/C=C/c1ccc(OC(C)=O)c(OC(C)=O)c1 on U-251: 29.1 µM (inactive)

# CCN(CC)CCn1c(=O)c2cccnc2n2c3c(=O)n(C)c(=O)n(C)c3nc12 with U-251: GI50 is > 100 µM (inactive)

Field GI50 (system: U-251) for entry CC(=O)OI1NC(=O)c2ccccc21 = > 100 µM (inactive)

The value of GI50 recorded for NC(CCc1ncc(-c2ccccc2)s1)C(=O)O (stereo not drawn) when tested on U-251 reads > 100 µM (inactive)

Known value: U-251 GI50 of the compound CN(C)CC/C(=N\Nc1c(F)c(F)c(F)c(F)c1F)c1ccccc1 equals 42.4 µM (inactive)

Item: O=C(O)C12CCC(CC1=O)C2 (stereo not drawn) | System: U-251 | GI50: > 100 µM (inactive)

Fill in: U-251 GI50 for Cc1c(C(=O)c2ccccc2C(=O)O)c2ccccc2n1C = > 100 µM (inactive)

Value (GI50, U-251) for record COC(=O)C1=C(C)NC2=C(C(=O)c3ccccc32)C1c1c[nH]nc1-c1ccccc1 (stereo not drawn) = 72.1 µM (inactive)

# lookup: Nc1nc(Cl)cc(NCC2(CO)CC(CCCCc3ccccc3)C2)n1 (stereo not drawn) on U-251, GI50 = > 100 µM (inactive)

# GI50 measured on U-251 for item CC(C)C(/C=C/c1ccc(Cl)cc1)=N\NC(=O)N/N=C(/C=C/c1ccc(Cl)cc1)C(C)C = 16.9 µM (inactive)

Observed GI50, U-251, COc1cc(NCC(C#N)C#N)ccc1/N=N/c1ccc([N+](=O)[O-])cc1 : > 100 µM (inactive)

Noted GI50 for NC(CCSC(F)F)C(=O)O (stereo not drawn) , tested on U-251: > 100 µM (inactive)

Record CCOC(=O)N1CCN(c2ccc3c(C)cc(C)nc3n2)CC1 ; system U-251; GI50 = > 100 µM (inactive)

GI50 for U-251 with input NC(=S)Nc1nc(=S)[nH]c2[nH]ccc12 equals 93.1 µM (inactive)
